experiment: in vivo; details: male, BALB/c, mouse, po, 50 mg/kg, Cmax (ng/mL)
test_readout: Cmax at 24 h (ng/mL)
Numbers only, in ng/mL.

`O=C(CCNCCC1CCN(Cc2ccccc2)CC1)NN(c1ccccc1)c1ccccc1` yielded Cmax at 24 h of 278

----------
Please go through the items and note down their CC50.
test: in vitro; details: chlorocebus sabaeus

State recorded CC50 for all listed compounds.
1. CN1CCN(CCC(=O)NN(c2ccccc2)c2ccccc2)CC1 [Compound 14]
2. CN1CCN(CC(=O)NN(Cc2ccccc2)c2ccccc2)CC1 [Compound 33]

1. > 100 µM
2. > 100 µM

----------
system: EBOV-GP-Pseudotype Virus (pEBOV)
Response key: rule met means SI (pEBOV) (CC50/EC50) >= 20; rule not met means SI (pEBOV) (CC50/EC50) < 20.

Dear colleague, could you confirm whether `O=C(CCN1CCCC1)Nn1c2ccccc2c2ccccc21` has SI (pEBOV) (CC50/EC50) at or above 20?
rule met

Dear colleague, could you confirm whether `O=C(CNCCC1CCN(Cc2ccccc2)CC1)Nn1c2ccccc2c2ccccc21` has SI (pEBOV) (CC50/EC50) at or above 20?
rule not met

Dear colleague, could you confirm whether `O=C(CCNCCN1CCN(Cc2ccccc2)CC1)NN(Cc1ccccc1)c1ccccc1` has SI (pEBOV) (CC50/EC50) at or above 20?
rule not met

Dear colleague, could you confirm whether `O=C(CNCCN1CCN(Cc2ccccc2)CC1)NN(c1ccccc1)c1ccccc1` has SI (pEBOV) (CC50/EC50) at or above 20?
rule met

Dear colleague, could you confirm whether `O=C(CCNCCC1CCN(Cc2ccccc2)CC1)Nn1c2ccccc2c2ccccc21` has SI (pEBOV) (CC50/EC50) at or above 20?
rule not met

----------
Please go through the items and note down their SI (CC50/EC50), replicative EBOV.
tested on: wild-type Zaire EBOV Mayinga 1976 strain (EBOV May)
One number for each entry.

chemical_smiles	subject_of_test	numeric_value
O=C(CNCCN1CCN(Cc2ccccc2)CC1)NN(c1ccccc1)c1ccccc1	wild-type Zaire EBOV Mayinga 1976 strain (EBOV May)	12.9

State recorded SI (CC50/EC50), replicative EBOV for all listed compounds.
1. O=C(CCNCCC1CCN(Cc2ccccc2)CC1)Nn1c2ccccc2c2ccccc21
2. O=C(CNCCC1CCN(Cc2ccccc2)CC1)Nn1c2ccccc2c2ccccc21
3. O=C(CNCCC1CCN(Cc2ccccc2)CC1)NC1c2ccccc2-c2ccccc21
4. O=C(CNCCC1CCN(Cc2ccccc2)CC1)NN(c1ccccc1)c1ccccc1

1: 9.1; 2: 11.0; 3: 134.6; 4: 16.9

----------
test: in vitro; conditions: chlorocebus sabaeus
test_readout: CC50 at 24 h (µM)
Answers are plain numbers, in µM.

chemical_smiles	CC50 at 24 h [µM]
O=C(CNCCC1CCN(Cc2ccccc2)CC1)NN(c1ccccc1)c1ccccc1	32.2
O=C(CCNCCC1CCN(Cc2ccccc2)CC1)NN(c1ccccc1)c1ccccc1	9.47
O=C(CCNCCN1CCN(Cc2ccccc2)CC1)NN(c1ccccc1)c1ccccc1	35.5

State recorded CC50 at 24 h for all listed compounds.
1. O=C(CCNCCC1CCN(Cc2ccccc2)CC1)Nn1c2ccccc2c2ccccc21
2. O=C(CNCCN1CCN(Cc2ccccc2)CC1)NN(c1ccccc1)c1ccccc1
3. O=C(CNCCC1CCN(Cc2ccccc2)CC1)NC1c2ccccc2-c2ccccc21

1. 4.75
2. 101
3. 33.6

----------
test: in vitro; conditions: CD-1, mouse, microsomes, pH 7.4
test_readout: half-life at 1 h, 10 µM (min)
One number for each entry, in min.

chemical_smiles	numeric_value
O=C(CCNCCN1CCN(Cc2ccccc2)CC1)NN(c1ccccc1)c1ccccc1	14

Turning now to a further record.
`O=C(CCNCCC1CCN(Cc2ccccc2)CC1)NN(c1ccccc1)c1ccccc1` yielded half-life at 1 h, 10 µM of 26

----------
experiment: in vivo; details: male, BALB/c, mouse, ip, 10 mg/kg, Brain-Kp (AUClast)
test_readout: Kp at 24 h
One number for each entry.

chemical_smiles	test_readout	numeric_value
O=C(CCNCCN1CCN(Cc2ccccc2)CC1)NN(c1ccccc1)c1ccccc1	Kp at 24 h	46.4

Turning now to a further record.
`O=C(CCNCCC1CCN(Cc2ccccc2)CC1)NN(c1ccccc1)c1ccccc1` yielded Kp at 24 h of 2.04

----------
test: in vitro; details: human
test_readout: CC50 at 24 h (µM)
Give bare numbers, in µM.

Illustrative cases are given below, each with its answer.
chemical_smiles	numeric_value
O=C(CCNCCN1CCN(Cc2ccccc2)CC1)NN(Cc1ccccc1)c1ccccc1	70
O=C(CNCCC1CCN(Cc2ccccc2)CC1)N(c1ccccc1)c1ccccc1	100
O=C(CCNCCC1CCN(Cc2ccccc2)CC1)NN(c1ccccc1)c1ccccc1	6

State recorded CC50 at 24 h for all listed molecules.
1. O=C(CCN1CCCC1)Nn1c2ccccc2c2ccccc21
2. O=C(CNCCC1CCN(Cc2ccccc2)CC1)NN(Cc1ccccc1)c1ccccc1
3. O=C(CNCCC1CCN(Cc2ccccc2)CC1)NC1c2ccccc2-c2ccccc21

1. 28
2. 106
3. 159

State recorded CC50 at 24 h for all listed molecules.
1. O=C(CNCCN1CCN(Cc2ccccc2)CC1)NN(c1ccccc1)c1ccccc1
2. CN1CCN(CCC(=O)Nn2c3ccccc3c3ccccc32)CC1
3. O=C(CNCCC1CCN(Cc2ccccc2)CC1)NN(c1ccccc1)c1ccccc1
4. O=C(CCNCCN1CCN(Cc2ccccc2)CC1)NN(c1ccccc1)c1ccccc1
5. O=C(CCN1CCCCC1)Nn1c2ccccc2c2ccccc21
6. O=C(CCNCCC1CCN(Cc2ccccc2)CC1)Nn1c2ccccc2c2ccccc21

1. 108
2. 150
3. 48
4. 159
5. 5
6. 0.46

----------
Please go through the items and note down their log10 of EC50.
tested on: wild-type Zaire EBOV Mayinga 1976 strain (EBOV May); experiment: microbe, parasite or virus in culture; details: Zaire ebolavirus, Vero C1008, 72 h, read-out: EC50 (μM), replicative EBOV
Response schema: value (number) is log10 of EC50 in units of µM.

chemical_smiles	log10 of EC50
O=C(CCNCCC1CCN(Cc2ccccc2)CC1)Nn1c2ccccc2c2ccccc21	-0.28

State recorded log10 of EC50 for all listed molecules.
1. O=C(CCNCCC1CCN(Cc2ccccc2)CC1)NN(c1ccccc1)c1ccccc1
2. O=C(CCNCCN1CCN(Cc2ccccc2)CC1)NN(c1ccccc1)c1ccccc1
3. O=C(CNCCC1CCN(Cc2ccccc2)CC1)NN(c1ccccc1)c1ccccc1
4. O=C(CNCCC1CCN(Cc2ccccc2)CC1)NC1c2ccccc2-c2ccccc21
5. O=C(CNCCN1CCN(Cc2ccccc2)CC1)NN(c1ccccc1)c1ccccc1
6. O=C(CNCCC1CCN(Cc2ccccc2)CC1)Nn1c2ccccc2c2ccccc21

-0.52
0.43
0.28
-0.60
0.89
0.18

----------
system: EBOV-GP-Pseudotype Virus (pEBOV); experiment: microbe, parasite or virus in culture; settings: Zaire ebolavirus, HeLa, 48 h, read-out: EC50 (μM) (pEBOV)
test_readout: EC50
Show the value, then the unit it is measured in.

chemical_smiles	EC50
O=C(CNCCC1CCN(Cc2ccccc2)CC1)NC1c2ccccc2-c2ccccc21	1.7 µM
O=C(CNCCC1CCN(Cc2ccccc2)CC1)NN(c1ccccc1)c1ccccc1	3.13 µM
O=C(CCNCCN1CCN(Cc2ccccc2)CC1)NN(c1ccccc1)c1ccccc1	0.58 µM
CN1CCN(CCC(=O)Nn2c3ccccc3c3ccccc32)CC1	2.4 µM

Turning now to a further record.
`O=C(CCNCCC1CCN(Cc2ccccc2)CC1)Nn1c2ccccc2c2ccccc21` yielded EC50 of 0.16 µM

----------
experiment: in vivo; conditions: male, BALB/c, mouse, po, 50 mg/kg
Please go through the items and note down their half-life at 24 h.
Answers are plain numbers, in h.

chemical_smiles	numeric_value
O=C(CCNCCC1CCN(Cc2ccccc2)CC1)NN(c1ccccc1)c1ccccc1	5.87

Turning now to a further record.
`O=C(CCNCCN1CCN(Cc2ccccc2)CC1)NN(c1ccccc1)c1ccccc1` yielded half-life at 24 h of 4.36

----------
test: in vitro; conditions: human
test_readout: CC50

Illustrative cases are given below, each with its answer.
compound	CC50
O=C(CN1CCOCC1)NN(c1ccccc1)c1ccccc1	> 10 µM
CCOC(=O)CCCCCCNCC(=O)N(c1ccccc1)c1ccccc1	> 100 µM
CCOC(=O)CCCCCCNCC(=O)NN(Cc1ccccc1)c1ccccc1	> 100 µM
CN1CCN(CC(=O)NN(Cc2ccccc2)c2ccccc2)CC1	> 100 µM
O=C(CCNCCc1ccccc1)NN(c1ccccc1)c1ccccc1	> 10 µM

State recorded CC50 for all listed compounds.
1. O=C(CN1CCN(c2ccccc2)CC1)NN(c1ccccc1)c1ccccc1
2. O=C(Cc1ccc(Br)cc1)NN(c1ccccc1)c1ccccc1
3. CCCCCC(=O)NN(c1ccccc1)c1ccccc1 [Compound 28, N′,N′-Diphenylhexanehydrazide]
4. O=C(CCN1CCN(c2ccccc2)CC1)NN(c1ccccc1)c1ccccc1
5. O=C(CCNCCN1CCOCC1)NN(c1ccccc1)c1ccccc1
6. CCOC(=O)C1CCN(CC(=O)NN(Cc2ccccc2)c2ccccc2)CC1

["> 10 µM", "> 10 µM", "> 10 µM", "> 10 µM", "> 10 µM", "> 100 µM"]

State recorded CC50 for all listed compounds.
1. O=C(Cc1ccc(Br)cc1)NN(Cc1ccccc1)c1ccccc1
2. CN1CCN(CCC(=O)NN(Cc2ccccc2)c2ccccc2)CC1
3. CCOC(=O)C1CCN(CC(=O)N(c2ccccc2)c2ccccc2)CC1

1. > 100 µM
2. > 10 µM
3. > 100 µM

State recorded CC50 for all listed compounds.
1. O=C(CCN1CCCCC1)NN(c1ccccc1)c1ccccc1
2. O=C(Cc1ccc(Br)cc1)N(c1ccccc1)c1ccccc1 [Compound 45, 2-(4-Bromophenyl)-N,N-diphenylacetamide]
3. O=C(CCN1CCOCC1)NN(c1ccccc1)c1ccccc1
4. CCOC(=O)C1CCN(CCC(=O)NN(c2ccccc2)c2ccccc2)CC1
5. CCOC(=O)CCCCCCNCC(=O)NN(c1ccccc1)c1ccccc1
6. O=C(CNCCN1CCOCC1)NN(c1ccccc1)c1ccccc1
7. CN1CCN(CCC(=O)NN(c2ccccc2)c2ccccc2)CC1

1. > 10 µM
2. > 100 µM
3. > 10 µM
4. > 10 µM
5. > 10 µM
6. > 10 µM
7. > 100 µM
